# System: NCI-H23 lung
# MEASUREMENT_DESCRIPTION: NCI tumour cell line growth inhibition, 48 h
VALUE_TYPE: TGI

compound=NCCOc1ncccc1/C=C1\c2ccccc2-c2ccc([N+](=O)[O-])cc21 value_type=TGI recorded_measurement="0.413 µM"
compound="COc1ccc(-c2nsc3c2NC(=O)CC3c2cccc(Cl)c2)cc1 (configuration not stated)" value_type=TGI recorded_measurement="> 100 µM"
compound=CC1(C)C(=O)C(=Cc2ccco2)C1=O value_type=TGI recorded_measurement="> 100 µM"
compound=COc1ccc(/C(Cl)=C(\C=O)c2ccc(Cl)cc2)cc1OC value_type=TGI recorded_measurement="8.36 µM"
compound=Cc1nc(Sc2nc3ccc([N+](=O)[O-])cc3s2)sc1C value_type=TGI recorded_measurement="4.44 µM"
compound="C[C@H]1O[C@@H](C(C)(C)C)OC(=O)[C@@H]1C(OC(=O)c1ccccc1)c1cccc2ccccc12 (some centres not stated)" value_type=TGI recorded_measurement="> 100 µM"
compound=O=C(CN(/C=C/C(=O)C(F)(F)F)c1ccccc1)c1ccc(Cl)cc1 value_type=TGI recorded_measurement="35.4 µM"
compound=COc1ccc(-c2nc(N)c(C#N)c3c2CCOc2c-3ccc3ccccc23)cc1 value_type=TGI recorded_measurement="61.9 µM"
compound="c1ccc(C2CC(c3ccc4ccccc4c3)=Nc3ccccc3S2)cc1 (configuration not stated)" value_type=TGI recorded_measurement="28.9 µM"
compound=C/C(CC(=O)Nc1ccc(NC(=O)C/C(C)=N\NC(N)=O)cc1)=N/NC(N)=O value_type=TGI recorded_measurement="> 100 µM"
compound=C/C(O[Si](C(C)C)(C(C)C)C(C)C)=C(\C)C(=O)N(C)c1ccccc1Cl value_type=TGI recorded_measurement="> 100 µM"
compound=Cc1cccc(Nc2cc(Cl)nc(SCC(=O)O)n2)c1C value_type=TGI recorded_measurement="> 100 µM"
compound=CCN(CC)CCN1C(=O)C(=O)N(c2cccc3ccccc23)C1=O value_type=TGI recorded_measurement="> 10 µM"
compound=C[n+]1cn(-c2nc3ccccc3nc2[N-]S(=O)(=O)c2ccccc2)c2ccccc21 value_type=TGI recorded_measurement="> 100 µM"
compound="CCOC1CCN(C(=O)c2ccccc2)O1 (configuration not stated)" value_type=TGI recorded_measurement="> 10 µM"
compound="OC(COc1ccccc1)CN1CCCCC1 (configuration not stated)" value_type=TGI recorded_measurement="> 100 µM"
compound=Cc1nc(Nc2ccc(Cl)c(Cl)c2)sc1C(=O)/C=C/c1ccc2c(c1)OCO2 value_type=TGI recorded_measurement="49.5 µM"
compound=O=C(/C(=N/Nc1ccccc1)c1ccc([N+](=O)[O-])cc1)c1ccc([N+](=O)[O-])cc1 value_type=TGI recorded_measurement="> 100 µM"
compound=S=C(CSc1ccccc1)Nc1cccc2ccccc12 value_type=TGI recorded_measurement="> 100 µM"
compound=O=C(c1ccco1)N(C(=S)N1CCN(c2ccccn2)CC1)c1ccccc1 value_type=TGI recorded_measurement="> 100 µM"
compound=Nc1ccc(-c2ccc3ncc4ccc(=O)n(-c5cccc(C(F)(F)F)c5)c4c3c2)cn1 value_type=TGI recorded_measurement="2.35 µM"
compound="COc1cc(C2c3cc4c(cc3[C@@H](N(C)c3ccc(N(C)C)cc3)C3COC(=O)C23)OCO4)cc(OC)c1O (some centres not stated)" value_type=TGI recorded_measurement="4.92 µM"

src = PubChem BioAssay (NCI)
